Target: BTK (Homo sapiens (Human))
Sequence (Q06187 whole entry, species assumed): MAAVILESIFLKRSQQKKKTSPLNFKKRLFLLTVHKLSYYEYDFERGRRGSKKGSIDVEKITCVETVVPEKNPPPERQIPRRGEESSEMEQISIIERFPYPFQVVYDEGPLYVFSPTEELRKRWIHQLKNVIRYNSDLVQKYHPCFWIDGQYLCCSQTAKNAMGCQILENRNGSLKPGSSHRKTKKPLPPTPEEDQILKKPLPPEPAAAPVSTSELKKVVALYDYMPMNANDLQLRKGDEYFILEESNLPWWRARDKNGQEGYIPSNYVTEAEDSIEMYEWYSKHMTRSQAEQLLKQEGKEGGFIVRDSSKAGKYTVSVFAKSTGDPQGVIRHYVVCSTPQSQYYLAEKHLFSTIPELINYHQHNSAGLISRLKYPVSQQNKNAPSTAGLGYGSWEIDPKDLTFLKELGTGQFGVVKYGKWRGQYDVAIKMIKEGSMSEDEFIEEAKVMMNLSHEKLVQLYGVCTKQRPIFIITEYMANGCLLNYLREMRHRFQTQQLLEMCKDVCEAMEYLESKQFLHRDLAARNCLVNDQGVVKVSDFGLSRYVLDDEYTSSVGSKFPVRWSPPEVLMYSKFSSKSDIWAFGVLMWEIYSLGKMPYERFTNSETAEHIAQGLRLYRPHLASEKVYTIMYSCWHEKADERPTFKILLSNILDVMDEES
Experiment: IC50 against BTK
Format: biochemical
Answer each item with its documented IC50.

What measured IC50 goes with C=CC(=O)N1CCN(C(=O)c2cc(Sc3cnc(NC(=O)C4CC4)s3)c(C)cc2OC)CC(F)C1 (stereo not shown) ? 10 to 100 nM

What measured IC50 goes with C=CC(=O)N1CCN(C(=O)c2cc(Sc3cnc(NC(=O)C4CC4)s3)c(C)cc2CC)C[C@H]1CC ? 100 to 1000 nM

What measured IC50 goes with C=CC(=O)N1CCN(C(=O)c2cc(Sc3cnc(NC(=O)c4ccsc4)s3)c(C)cc2OC)C(C)(C)C1 ? < 10 nM

What measured IC50 goes with C=CC(=O)N1CC[C@@H](N(C)C(=O)c2cc(Sc3cnc(NC(C)=O)s3)c(C)cc2OC)C1 ? < 10 nM

What measured IC50 goes with C=CC(=O)N1CCN(C(=O)c2cc(Sc3cnc(NC(=O)C4CC4)s3)c(C)cc2C)C[C@H]1C#N ? < 10 nM

What measured IC50 goes with C=CC(=O)N1CCCN(C(=O)c2cc(Sc3cnc(NC(C)=O)s3)c(C)cc2OC)CC1 ? 1000 to 10000 nM

What measured IC50 goes with C=CC(=O)N1CCN(C(=O)c2cc(Sc3cnc(Nc4ccc(CN(C)C)cn4)s3)c(C)cc2OC)CC1 ? < 10 nM

---

Answer each item with its documented TXK/ITK.
Target: TXK (Homo sapiens (Human), UniProt P42681)
Sequence (P42681 whole entry, species assumed): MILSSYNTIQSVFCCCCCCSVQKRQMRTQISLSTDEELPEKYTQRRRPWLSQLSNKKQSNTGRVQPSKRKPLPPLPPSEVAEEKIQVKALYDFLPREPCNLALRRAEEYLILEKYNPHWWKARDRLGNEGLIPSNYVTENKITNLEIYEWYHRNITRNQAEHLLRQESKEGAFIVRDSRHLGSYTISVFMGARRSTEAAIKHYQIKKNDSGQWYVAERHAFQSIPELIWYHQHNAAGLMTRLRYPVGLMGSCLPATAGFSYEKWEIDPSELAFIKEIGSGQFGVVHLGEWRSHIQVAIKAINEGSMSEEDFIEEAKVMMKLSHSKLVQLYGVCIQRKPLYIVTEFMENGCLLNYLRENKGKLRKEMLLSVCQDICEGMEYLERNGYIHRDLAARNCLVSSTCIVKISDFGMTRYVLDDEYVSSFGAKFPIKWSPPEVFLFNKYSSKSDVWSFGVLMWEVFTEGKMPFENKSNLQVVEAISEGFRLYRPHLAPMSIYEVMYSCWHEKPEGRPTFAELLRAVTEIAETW
Assay: IC50 against TXK
Type: biochemical
Conditions: ratio of TXK IC50 to ITK IC50

What measured TXK/ITK goes with C=CC(=O)N1CCCN(C(=O)c2cc(Sc3cnc(NC(=O)C4CCN(C)CC4)s3)c(C)cc2OC)CC1 ? 46.119

What measured TXK/ITK goes with C=CC(=O)N1C[C@@H]2C[C@H]1CN2C(=O)c1cc(Sc2cnc(NC(C)=O)s2)c(C)cc1OC ? 6.6876

What measured TXK/ITK goes with C=CC(=O)N1CCN(C(=O)c2cc(Sc3cnc(NC(=O)C4CC4)s3)c(C)cc2CC)CC1 ? 2.9

What measured TXK/ITK goes with C=CC(=O)N1CCN(C(=O)c2cc(Sc3cnc(NC(C)=O)s3)c(C)cc2OC)CC1(C)C ? 5.9566

What measured TXK/ITK goes with C=CC(=O)N1CCCN(C(=O)c2cc(Sc3cnc(NC(=O)c4ccsc4)s3)c(C)cc2OC)C[C@H]1CC ? 66.4

What measured TXK/ITK goes with C=CC(=O)N1CCN(C(=O)c2cc(Sc3cnc(NC(=O)c4cnn(CCN(C)C)c4)s3)c(C)cc2OC)CC1 ? 32.9

What measured TXK/ITK goes with C=CC(=O)N1CCCN(C(=O)c2cc(Sc3cnc(NC(=O)c4cnsc4)s3)c(C)cc2OC)C[C@H]1CC ? 146.1

What measured TXK/ITK goes with C=CC(=O)N1CCCN(C(=O)c2cc(Sc3cnc(NC(=O)C4CC4)s3)c(C)cc2C)C[C@H]1CC ? 118.0

What measured TXK/ITK goes with C=CC(=O)N1CCN(C(=O)c2cc(Sc3cnc(NC(=O)C4CC4)s3)c(C)cc2OC)CC1(C)C ? 4.9287

What measured TXK/ITK goes with C=CC(=O)N1CCN(C(=O)c2cc(Sc3cnc(NC(=O)c4cn(C)cn4)s3)c(C)cc2OC)CC1 ? 12.995

What measured TXK/ITK goes with C=CC(=O)N1CCCN(C(=O)c2cc(Cc3cnc(NC(=O)C4CC4)s3)c(C)cc2OC)C[C@H]1C ? 12.8

What measured TXK/ITK goes with C=CC(=O)N1CCCN(C(=O)c2cc(Sc3cnc(NC(=O)CC)s3)c(C)cc2OC)C[C@H]1C ? 181.42

What measured TXK/ITK goes with C=CC(=O)N1CCN(C(=O)c2cc(Sc3cnc(Nc4ncc(C)cc4C)s3)c(C)cc2C)CC1 ? 3.29

What measured TXK/ITK goes with C=CC(=O)N1CCN(C(=O)c2cc(Sc3cnc(NC(C)=O)s3)c(C)cc2C)C[C@H]1C#N ? 3.2

What measured TXK/ITK goes with C=CC(=O)N1CCCN(C(=O)c2cc(Sc3cnc(NC(=O)C4CC4)s3)ccc2OC)C[C@H]1C ? 95.398

What measured TXK/ITK goes with C=C(CN(C)C)C(=O)N1CCN(C(=O)c2cc(Sc3cnc(NC(=O)C4CC4)s3)c(C)cc2OC)CC1 ? 22.987

What measured TXK/ITK goes with C=CC(=O)N1CCCN(C(=O)c2cc(Sc3cnc(NC(=O)C4CC4)s3)c(C)cc2OC)C[C@H]1CC ? 81.1

What measured TXK/ITK goes with C=CC(=O)N1CCN(C(=O)c2cc(Sc3cnc(NC(=O)c4ccsc4)s3)c(C)cc2C)C[C@H]1CC ? 7.0

What measured TXK/ITK goes with C=CC(=O)N1C[C@H]2CC[C@@H](C1)N2C(=O)c1cc(Sc2cnc(NC(=O)C3CC3)s2)c(C)cc1OC ? 5.4235

What measured TXK/ITK goes with C=CC(=O)N1C[C@H]2CC[C@@H](C1)N2C(=O)c1cc(Sc2cnc(NC(=O)c3ccsc3)s2)c(C)cc1OC ? 3.51

What measured TXK/ITK goes with C=CC(=O)N1CCN(C(=O)c2cc(Sc3cnc(Nc4ccccn4)s3)c(C)cc2OC)[C@@H](C)C1 ? 6.43

What measured TXK/ITK goes with C=CC(=O)N1CCC2(C1)CN(C(=O)c1cc(Sc3cnc(NC(=O)C4CC4)s3)c(C)cc1OC)C2 ? 3.4072

What measured TXK/ITK goes with C=CC(=O)N1CCN(C(=O)c2cc(Sc3cnc(NC(=O)c4ccsc4)s3)c(C)cc2OC)CC1 ? 8.3141

What measured TXK/ITK goes with C=CC(=O)N1CCCN(C(=O)c2cc(Sc3cnc(NC(=O)C4CC4)s3)c(C)cc2C)CC1 ? 16.033

What measured TXK/ITK goes with C=CC(=O)N1CCCN(C(=O)c2cc(Sc3cnc(NC(=O)C4CC4)s3)c(C)cc2C)C[C@H]1C ? 166.05

What measured TXK/ITK goes with C=CC(=O)N1CCN(C(=O)c2cc(Sc3cnc(NC(=O)C4CC4)s3)c(F)cc2C)C[C@H]1C ? 9.2468

What measured TXK/ITK goes with C=CC(=O)N1CCN(C(=O)c2cc(Cc3cnc(NC(=O)C4CC4)s3)c(C)cc2OC)CC1 ? 0.392

What measured TXK/ITK goes with C=CC(=O)N1CCN(C(=O)c2cc(Sc3cnc(NC(=O)c4ccsc4)s3)c(C)cc2OC)C(C)(C)C1 ? 1.00

What measured TXK/ITK goes with C=CC(=O)N1CCN(C(=O)c2cc(Sc3cnc(NC(=O)C4CC4)s3)c(C)cc2OC)CC1 ? 7.378

---

Target: TXK (Homo sapiens (Human), UniProt P42681)
Experiment: IC50 against TXK
Format: biochemical
Conditions: ratio of TXK IC50 to ITK IC50
endpoint-label: TXK/ITK
Reply: number alone, nothing else.

What measured TXK/ITK goes with C=CC(=O)N1CCN(C(=O)c2cc(Sc3cnc(NC(=O)C4CC4)s3)c(C)cc2OC)C(C)(C)C1 [Compound 15] ? 1.1111

What measured TXK/ITK goes with C=CC(=O)N1CCCN(C(=O)c2cc(Sc3cnc(NC(=O)C4CC4)s3)c(F)cc2C)C[C@H]1C [Compound 83] ? 45.317

What measured TXK/ITK goes with C=CC(=O)N1CCN(C(=O)c2cc(Sc3cnc(NC(=O)c4cccnc4)s3)c(C)cc2OC)CC1 [Compound 89] ? 45.743

What measured TXK/ITK goes with C=CC(=O)N1CCN(C(=O)c2cc(Sc3cnc(NC(=O)C4CC4)s3)c(C)cc2OC)CC(F)C1 (centres unmarked) [Compound 55] ? 6.2416

What measured TXK/ITK goes with C=CC(=O)N1CC[C@@H](N(C)C(=O)c2cc(Sc3cnc(NC(C)=O)s3)c(C)cc2OC)C1 [Compound 28] ? 5.5925

What measured TXK/ITK goes with C=CC(=O)N1CCCN(C(=O)c2cc(Sc3cnc(NC(=O)C4CC4)s3)c(Cl)cc2C)C[C@H]1C [Compound 62] ? 320.16

What measured TXK/ITK goes with C=CC(=O)N1CCN(C(=O)c2cc(Sc3cnc(NC(=O)c4ccc(N5CCN(C(=O)CCOCCOCCOCCOCCNC(=O)CCCCC6SCC7NC(=O)NC76)CC5)cc4)s3)c(C)cc2OC)CC1 (centres unmarked) [Compound 41] ? 21.91

What measured TXK/ITK goes with C=CC(=O)N1CCCN(C(=O)c2cc(C)c(C)c(Sc3cnc(NC(=O)C4CC4)s3)c2)C[C@H]1C [Compound 64] ? 11.944

What measured TXK/ITK goes with C=CC(=O)N1CCCN(C(=O)c2cc(Sc3cnc(Nc4ccccn4)s3)c(C)cc2OC)C[C@H]1C(C)C [Compound 147] ? 29.58

What measured TXK/ITK goes with C=CC(=O)N1CCN(C(=O)c2cc(Sc3cnc(NC(C)=O)s3)c(C)cc2OC)CC1 [Compound 2] ? 19.869

What measured TXK/ITK goes with C=CC(=O)N1CCCN(C(=O)c2cc(Sc3cnc(NC(=O)c4cnsc4)s3)c(C)cc2C)C[C@H]1CC [Compound 123] ? 144.0

What measured TXK/ITK goes with C=CC(=O)N1CCN(C(=O)c2cc(Sc3cnc(NC(=O)C4CC4)s3)c(C)cc2OC)[C@H](C)C1 [Compound 20] ? 2.2433

What measured TXK/ITK goes with C=CC(=O)N1CCCN(C(=O)c2cc(Sc3cnc(NC(=O)c4ccsc4)s3)c(C)cc2C)C[C@H]1CC [Compound 122] ? 118.5

What measured TXK/ITK goes with C=CC(=O)N1CCN(C(=O)c2cc(Sc3cnc(NC(=O)C4CC4)s3)c(C)cc2C)C[C@H]1CC [Compound 100] ? 8.8107

What measured TXK/ITK goes with C=CC(=O)N1CCN(C(=O)c2cc(Sc3cnc(NC(=O)c4cocn4)s3)c(C)cc2OC)CC1 [Compound 92] ? 19.123

What measured TXK/ITK goes with C=CC(=O)N1CCN(C(=O)c2cc(Sc3cnc(NC(=O)C4CC4)s3)c(Cl)cc2C)CC1 [Compound 80] ? 8.1619

What measured TXK/ITK goes with C=CC(=O)N1CCCN(C(=O)c2cc(Sc3cnc(NC(=O)c4cccc(CN5CCOCC5)c4)s3)c(C)cc2OC)CC1 [Compound 49] ? 37.652

What measured TXK/ITK goes with C=CC(=O)N1CCN(C(=O)c2cc(Sc3cnc(NC(=O)C4CC4)s3)c(C)cc2C(F)(F)F)C[C@H]1C [Compound 69] ? 4.9369

What measured TXK/ITK goes with C=CC(=O)N1[C@@H]2CC[C@H]1CN(C(=O)c1cc(Sc3cnc(NC(=O)C4CC4)s3)c(C)cc1OC)C2 [Compound 18] ? 2.8993

What measured TXK/ITK goes with C=CC(=O)N1CCN(C(=O)c2cc(Sc3cnc(NC(=O)C4CC4)s3)c(Cl)cc2C)C[C@H]1CC [Compound 101] ? 14.4

What measured TXK/ITK goes with C=CC(=O)N1CCN(C(=O)c2cc(Sc3cnc(NC(C)=O)s3)c(C)cc2OC)[C@@H](C)C1 [Compound 9] ? 14.236

What measured TXK/ITK goes with C=CC(=O)N1CCCN(C(=O)c2cc(Sc3cnc(Nc4ncccc4C)s3)c(C)cc2OC)C[C@H]1C [Compound 136] ? 42

What measured TXK/ITK goes with C=CC(=O)N1CCC2(C1)CN(C(=O)c1cc(Sc3cnc(NC(=O)c4ccsc4)s3)c(C)cc1OC)C2 [Compound 145] ? 3.86

What measured TXK/ITK goes with C=CC(=O)N1CCCN(C(=O)c2cc(Sc3cnc(NC(=O)c4ccsc4)s3)c(C)cc2OC)C[C@H]1C(C)C [Compound 149] ? 171.45

What measured TXK/ITK goes with C=CC(=O)N1C[C@H]2CC[C@@H](C1)N2C(=O)c1cc(Sc2cnc(NC(C)=O)s2)c(C)cc1OC [Compound 7] ? 11.993

What measured TXK/ITK goes with C=CC(=O)N1CCN(C(=O)c2cc(Sc3cnc(NC(=O)c4nccn4C)s3)c(C)cc2OC)CC1 [Compound 96] ? 11.966

What measured TXK/ITK goes with C=C(CN(C)C)C(=O)N1CCCN(C(=O)c2cc(Sc3cnc(NC(=O)C4CC4)s3)c(C)cc2OC)C[C@H]1C [Compound 88] ? 30.436

What measured TXK/ITK goes with C=CC(=O)N1CCN(C(=O)c2cc(Sc3cnc(NC(C)=O)s3)c(C)cc2OC)C[C@H]1C [Compound 11] ? 25.051

What measured TXK/ITK goes with C=CC(=O)N1CCCN(C(=O)c2cc(Sc3cnc(NC(=O)C4CC4)s3)c(C)cc2OC)[C@@H](C)C1 [Compound 72] ? 1.1846
